From: ChEMBL document CHEMBL1961873

# target-under-test: Tyrosine-protein kinase Mer (Homo sapiens);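 also: values are mean inhibition of human MER kinase, from the GSK PKIS profiling panel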
# experimental-context: at 1 µM
inhibition by entry:
measurement-type: inhibition

INSERT INTO assay_data (molecule, target_under_test, meas_value) VALUES
  ('Cc1ccc(NC(=O)c2ccnc(N3CCCC3)c2)cc1-c1ccc(C(=O)NCC2CC2)cc1', 'Tyrosine-protein kinase Mer (Homo sapiens)', '3.81%'),
  ('CNC(=O)c1cncc(/C=C/c2c(Cl)cccc2Cl)c1', 'Tyrosine-protein kinase Mer (Homo sapiens)', '2.24%'),
  ('CS(=O)(=O)Nc1ccc(N/C=C2\C(=O)Nc3ccccc32)cc1', 'Tyrosine-protein kinase Mer (Homo sapiens)', '3.63%'),
  ('NCc1ccc(-c2nc(-c3ccc(Cl)c(O)c3)c(-c3ccncc3)[nH]2)cc1', 'Tyrosine-protein kinase Mer (Homo sapiens)', '6.1%'),
  ('CCCN1CCC=C(c2ccc(Nc3nc(Nc4ccccc4C(N)=O)c4cc[nH]c4n3)c(C)c2)C1', 'Tyrosine-protein kinase Mer (Homo sapiens)', '10.5%'),
  ('CS(=O)(=O)CCN(CC#N)Cc1ccc(-c2ccc3ncnc(Nc4ccc(OCc5cccc(F)c5)c(Cl)c4)c3c2)o1', 'Tyrosine-protein kinase Mer (Homo sapiens)', '2.05%'),
  ('[O-][S+]1CCN(Cc2ccc(-c3ccc4ncnc(Nc5ccc(OCc6ccccc6)c(F)c5)c4c3)o2)CC1', 'Tyrosine-protein kinase Mer (Homo sapiens)', '81.8%'),
  ('Fc1cccc(COc2ccc(Nc3ncnc4sc(-c5cccs5)cc34)cc2Cl)c1', 'Tyrosine-protein kinase Mer (Homo sapiens)', '0.96%'),
  ('Fc1cccc(COc2ccc(Nc3ncnc4cc(-c5ccc[nH]5)sc34)cc2Cl)c1', 'Tyrosine-protein kinase Mer (Homo sapiens)', '5.95%'),
  ('Nc1nc(-c2ccc3c(c2)C(=Cc2cc(Br)c(O)c(Br)c2)C(=O)N3)cs1', 'Tyrosine-protein kinase Mer (Homo sapiens)', '3.29%'),
  ('CCCN1CCC(Oc2cc(Nc3nc(Nc4cccc(F)c4C(N)=O)c4cc[nH]c4n3)c(OC)cc2Cl)CC1', 'Tyrosine-protein kinase Mer (Homo sapiens)', '2.77%'),
  ('COc1ccc(-c2nn3ncccc3c2-c2ccnc(Nc3ccc(Cl)c(C(F)(F)F)c3)n2)cc1', 'Tyrosine-protein kinase Mer (Homo sapiens)', '0.41%'),
  ('Nc1ncnc2occ(-c3ccc(NC(=O)Nc4cc(C(F)(F)F)cc(C(F)(F)F)c4)cc3)c12', 'Tyrosine-protein kinase Mer (Homo sapiens)', '14.4%'),
  ('NS(=O)(=O)c1ccc(N/N=C2\C(=O)Nc3ccc(C(=O)NCCc4c[nH]cn4)cc32)cc1', 'Tyrosine-protein kinase Mer (Homo sapiens)', '4.99%'),
  ('Cn1cc(C=C2C(=O)Nc3cccnc32)c2ccccc21', 'Tyrosine-protein kinase Mer (Homo sapiens)', '16.9%'),
  ('COC(=O)Nc1nc2cc(Oc3cccc(NC(=O)Nc4cc(C(F)(F)F)ccc4F)c3)ccc2[nH]1', 'Tyrosine-protein kinase Mer (Homo sapiens)', '-0.14%'),
  ('O=C1NC(=O)C(c2ccc(Cl)cc2)=C1Nc1ccc(Cl)c(C(=O)O)c1', 'Tyrosine-protein kinase Mer (Homo sapiens)', '0.08%'),
  ('CC1=C(C(=O)Nc2ccc3[nH]ncc3c2)C(c2ccc3ccccc3c2)CC(=O)N1 (centres undefined)', 'Tyrosine-protein kinase Mer (Homo sapiens)', '2.79%'),
  ('COc1cc2ncn(-c3cc(OCc4ccccc4C(F)(F)F)c(C(N)=O)s3)c2cc1OC', 'Tyrosine-protein kinase Mer (Homo sapiens)', '9.28%');
